Measured values drawn from ChEMBL document CHEMBL1125300 for this set.

Listing of recorded IC90 by entry.
Species on record: Rattus norvegicus
Assay: In vitro inhibitory concentration producing 90% reduction in maximum contraction produced by KCl (20 mmol) in isolated aorta of rat.
Assay type: functional
Settings: Rattus norvegicus, Aorta
Please respond with the number in µM and leave the unit unwritten.

1) C/N=C(\S)C1(c2cccnc2)CCCC1 ... 30
2) CC(C)/N=C(\S)[C@]1(c2cccnc2)CCCC[S+]1[O-] (stereo not given in full) ... 10
3) C/N=C(\S)[C@]1(c2cccc(C#N)c2)CCCC[S+]1[O-] (stereo not given in full) ... 1.6
4) CCCC/N=C(\S)[C@]1(c2cccnc2)CCCC[S+]1[O-] (stereo not given in full) ... 8
5) C/N=C(\S)[C@]1(c2ccc(-c3ccccc3)cc2)CCCC[S+]1[O-] (stereo not given in full) ... 12
6) C/N=C(\S)C1(c2cccnc2)CCCCC1 ... 3

Identify IC90 associated with the compound C/N=C(\S)[C@]1(c2cc(Cl)cc(Cl)c2)CCCC[S+]1[O-] (stereo not given in full) 0.4

Output measured IC90 for this item: C/N=C(\S)[C@]1(c2ccc(Cl)nc2)CCCC[S+]1[O-] (stereo not given in full) 0.3

Provide only the value of recorded IC90 for C/N=C(\S)[C@]1(c2cccc(C(F)(F)F)c2)CCCC[S+]1[O-] (stereo not given in full) 0.8

Let me know recorded IC90 for C/N=C(\S)[C@]1(c2cccc(F)c2)CCCC[S+]1[O-] (stereo not given in full) , thanks. 7

====

Species on record: Rattus norvegicus
Assay: In vitro inhibitory concentration producing 90% reduction in maximum contraction produced by KCl (20 mmol) in isolated aorta of rat.
Assay type: functional
Conditions: Rattus norvegicus, Aorta
Property Name: IC90 (µM)
Please respond with the number in µM and leave the unit unwritten.

Some solved cases for reference:
1) CC/N=C(\S)[C@]1(c2cccnc2)CCCC[S+]1[O-] (stereo partly specified) ... 0.3
2) C/N=C(\S)[C@]1(c2ccccc2)CCCC[S+]1[O-] (stereo partly specified) ... 9.5
3) C/N=C(\S)[C@]1(c2cnc3ccccc3c2)CCCC[S+]1[O-] (stereo partly specified) ... 0.06
4) C/N=C(\S)[C@]1(c2ccncc2)CCCC[S+]1[O-] (stereo partly specified) ... 25

Note down IC90 recorded for C/N=C(\S)[C@]1(c2cnc(-c3ccccc3)s2)CCCC[S+]1[O-] (stereo partly specified) 4

====

Species: Rattus norvegicus
Assay: In vitro inhibitory concentration producing 90% reduction in maximum contraction produced by KCl (20 mmol) in isolated aorta of rat.
Type: functional
Conditions: Rattus norvegicus, Aorta
Reported IC90 values for the following compounds.

Examples with answers:
1) C/N=C(\S)[C@]1(c2ccns2)CCCC[S+]1[O-] (stereo partly specified) ... 7000 nM
2) CCC/N=C(\S)[C@]1(c2cccnc2)CCCC[S+]1[O-] (stereo partly specified) ... 600 nM
3) C/N=C(\S)[C@]1(c2ccc3ccccc3c2)CCCC[S+]1[O-] (stereo partly specified) ... 2000 nM
4) C/N=C(\S)[C@]1(c2nc3ccccc3s2)CCCC[S+]1[O-] (stereo partly specified) ... 29000 nM
5) C/N=C(\S)[C@]1(c2cccc(C(N)=O)c2)CCCC[S+]1[O-] (stereo partly specified) ... 12000 nM
6) C/N=C(\S)[C@]1(c2ccc(Cl)c(Cl)c2)CCCC[S+]1[O-] (stereo partly specified) ... 300 nM
7) N#C[C@]1(c2cccnc2)CCCC[S+]1[O-] (stereo partly specified) ... > 30000 nM
8) C/N=C(\S)[C@]1(c2ccc(Cl)cc2)CCCC[S+]1[O-] (stereo partly specified) ... 2800 nM

Using known records, supply IC90 for CC1(C)Oc2ccc(C#N)cc2C(N2CCCC2=O)C1O (stereo unspecified) [CROMAKALIM] 200 nM

Supply recorded IC90 for C/N=C(\S)[C@]1(c2ccccn2)CCCC[S+]1[O-] (stereo partly specified) here. > 30000 nM

Give me measured IC90, please, for this compound: CNC(=S)[C@]1(c2cccnc2)CCCC[S@+]1[O-] > 30000 nM
